This collection of values is drawn from the supplement of paper PMC10567573.

I'd be grateful if you could share measured protein stability index for these entries.
B1: FBXO34 (parent)
chain: ASSVESTLPVLEASSWKKQVSHDF

Variants of: B1
TEST METHOD NOTES: protein stability index of a GFP-peptide fusion (GPS, HEK-293T) (PSI 1-6); higher = more stable;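 further: lentivirally expressed fusions sorted by FACS into six bins by GFP to DsRed ratio, PSI derived from sequencing read proportions per bin multiplied by bin number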
CONDITIONS USED: c terminus: a fixed tail appended
One number for each entry.

Reference set (10 entries):
S21G; 2.79
L11C; 2.85
S14Q; 2.4
F24W; 2.45
S15I; 4.11
K18T; 2.95
S15N; 2.88
H22T; 3.19
K18L; 2.83
Q19P; 4.53

Hi! Can you tell me protein stability index for each of these variants?
1. S3M
2. S14D
3. L8H

1: 2.63; 2: 1.67; 3: 2.89

Fill in protein stability index for each of the 3 variants listed.
1. W16C
2. A1L
3. L8R

4.2
3.35
3.05
